Measure: IC50
Reply with the number and its unit after it.

# get_value(readout= IC50, system= SNAP-hSPR (sepiapterin reductase, SPR) (Homo sapiens, UniProt P35270)) for O=C(c1cn(-c2nn3cccc3c(=O)[nH]2)nn1)N1CCN(C2CCC2)CC1 [Q-1244]
1 nM

API: value(readout= IC50, system= SNAP-hSPR (sepiapterin reductase, SPR) (Homo sapiens, UniProt P35270), query= Cc1c(C(=O)N2CC3C(C2)C3(C)C)cnn1-c1nn2cccc2c(=O)[nH]1 (centres unmarked) [Q-0927] )
1 nM

What is its IC50 for SNAP-hSPR (sepiapterin reductase, SPR) (Homo sapiens, UniProt P35270)? Entry: O=c1[nH]c(-c2cc(Br)ccn2)nc2ccsc12 [Q-0540]
300 nM

Request body: readout IC50, system SNAP-hSPR (sepiapterin reductase, SPR) (Homo sapiens, UniProt P35270), query Cc1c(C(=O)N2CC(C)(NC(=O)OC(C)(C)C)C2)cnn1-c1nn2cccc2c(=O)[nH]1 [Q-0867] . Return the value.
2 nM

API: value(readout=IC50, system=SNAP-hSPR (sepiapterin reductase, SPR) (Homo sapiens, UniProt P35270)) for record Cc1cc(=O)[nH]c(-n2ncc(C(=O)NCC(F)(F)C(F)(F)F)c2C)n1 [Q-0364]
70 nM

What reported IC50 corresponds to Cc1c(C(=O)N2CCN(c3ccccn3)CC2)cnn1-c1nn2cccc2c(=O)[nH]1 [Q-0843] on SNAP-hSPR (sepiapterin reductase, SPR) (Homo sapiens, UniProt P35270)?
1 nM

Any idea what IC50 came out for O=C(c1cn(-c2nn3cccc3c(=O)[nH]2)nn1)N1CC(N2CCC(F)(F)C2)C1 [Q-1224] on SNAP-hSPR (sepiapterin reductase, SPR) (Homo sapiens, UniProt P35270)?
9 nM

Item: Cc1c(C(=O)O)cnn1-c1nc2ccsc2c(=O)[nH]1 [Q-0541] Test system: SNAP-hSPR (sepiapterin reductase, SPR) (Homo sapiens, UniProt P35270) Read-out: IC50 Value: ?
200 nM

// fetch SNAP-hSPR (sepiapterin reductase, SPR) (Homo sapiens, UniProt P35270) IC50 for Cc1c(C(=O)N2CC[C@@H]3CN(C(=O)OC(C)(C)C)[C@@H]3C2)cnn1-c1nn2cccc2c(=O)[nH]1 [Q-0788]
10 nM

Item Cc1c(C(=O)N2CC3CC(C2)N3CC(F)(F)F)cnn1-c1nc2cc[nH]c2c(=O)[nH]1 [Q-1291] with SNAP-hSPR (sepiapterin reductase, SPR) (Homo sapiens, UniProt P35270) - IC50?
200 nM

// map Cc1c(C(=O)N2CC3CC(C2)N3CCC(F)(F)F)cnn1-c1nn2cccc2c(=O)[nH]1 [Q-1194] to recorded IC50 (system: SNAP-hSPR (sepiapterin reductase, SPR) (Homo sapiens, UniProt P35270))
Sequence (P35270 whole entry): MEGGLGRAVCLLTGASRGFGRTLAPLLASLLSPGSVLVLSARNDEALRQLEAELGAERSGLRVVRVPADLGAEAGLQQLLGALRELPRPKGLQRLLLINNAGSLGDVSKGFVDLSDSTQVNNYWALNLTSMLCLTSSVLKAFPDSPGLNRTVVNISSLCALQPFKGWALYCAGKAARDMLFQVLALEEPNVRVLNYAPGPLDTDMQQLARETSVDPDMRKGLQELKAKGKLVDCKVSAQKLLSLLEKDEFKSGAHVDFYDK
2 nM

GET /values?readout=IC50&system=SNAP-hSPR (sepiapterin reductase, SPR) (Homo sapiens, UniProt P35270)&item= Cc1c(C(=O)N2CCC3OCCCC3C2)cnn1-c1nn2cccc2c(=O)[nH]1 (centres unmarked) [Q-0917]
3 nM

Tell me reported IC50 for Cc1c(C(=O)N2CC3(CCN(C(=O)OC(C)(C)C)CC3)C2)cnn1-c1nn2cccc2c(=O)[nH]1 [Q-0772] , tested with SNAP-hSPR (sepiapterin reductase, SPR) (Homo sapiens, UniProt P35270).
1 nM

# query: IC50 | item Cc1c(C(=O)N2CCC(O)(c3ccccc3)CC2C)cnn1-c1nc2c(c(=O)[nH]1)CCC2 (centres unmarked) [Q-0483] | system: SNAP-hSPR (sepiapterin reductase, SPR) (Homo sapiens, UniProt P35270)
4 nM

Query IC50 on SNAP-hSPR (sepiapterin reductase, SPR) (Homo sapiens, UniProt P35270) for Cc1c(C(=O)N2CCN(CC(F)(F)F)CC2)cnn1-c1nc2c(c(=O)[nH]1)CC(C)(C)C2 [Q-1563]
5000 nM

Test system SNAP-hSPR (sepiapterin reductase, SPR) (Homo sapiens, UniProt P35270); read-out IC50; what value for C=C(c1cnn(C(C)C)c1NC(=O)c1cnn(-c2nn3cccc3c(=O)[nH]2)c1C)C(F)(F)F [Q-1143] ?
3 nM

Provide value of IC50 for this record tested with SNAP-hSPR (sepiapterin reductase, SPR) (Homo sapiens, UniProt P35270): Cc1cc(=O)[nH]c(-n2ccc(C(=O)NC3CCCC3)n2)n1 [Q-0333]
20 nM
